Value source: patent US12480920B2

Measured wt % of impurities at time points (months): 12 values are reported for all entries that follow.
assay: Stability study of fosfomycin for injection drug product: analysis of impurities by HILIC-HPLC with CAD detection; format: physicochemical; conditions: fosfomycin for injection drug product (vials, 7.92 g fosfomycin disodium + 150 mg succinic acid), 25° C. and 60% RH, 12 months
Just the number please, in wt %, no unit attached.

COC(C(C)O)P(=O)(O)O (stereo not drawn) : 0.12

Let's switch to this molecule now.
Ask: Given CC(OP(=O)(O)C1OC1C)C(O)P(=O)(O)O (stereo not drawn) [Dimer1] , state its recorded wt % of impurities at time points (months): 12.
Reply: 0.09

----------
This listing pairs molecules with measured wt % of impurities at time points (months): 1.
test: Stability study of fosfomycin for injection drug product: analysis of impurities by HILIC-HPLC with CAD detection; type: physicochemical; conditions: fosfomycin for injection drug product (vials, 7.92 g fosfomycin disodium + 150 mg succinic acid), 25° C. and 60% RH, 1 month
Form entry: value (wt %) — number only.

Ask: Query: wt % of impurities at time points (months): 1; subject: COC(C(C)O)P(=O)(O)O (stereo not drawn)
Reply: 0.18

Ask: Quick one: wt % of impurities at time points (months): 1 for `C=CCP(=O)(O)O` ?
Reply: 0.46

Ask: Query (molecule): CC(O)C(O)P(=O)([O-])[O-].[Na+].[Na+] (stereo not drawn) [Impurity A, (1,2-dihydroxypropyl)phosphonate] ; field requested: wt % of impurities at time points (months): 1
Reply: 0.06

Ask: Could you share which wt % of impurities at time points (months): 1 value was measured for CC(OP(=O)(O)C1OC1C)C(O)P(=O)(O)O (stereo not drawn) [Dimer1] ?
Reply: 0.06

Ask: # input molecule: CC(OP(=O)(OC(C)C(O)P(=O)(O)O)C1OC1C)C(O)P(=O)(O)O (stereo not drawn) ; wanted: its wt % of impurities at time points (months): 1
Reply: 0.07

----------
assay: Stability study of fosfomycin for injection drug product: analysis of impurities by HILIC-HPLC with CAD detection; format: physicochemical; conditions: fosfomycin for injection drug product (vials, 7.92 g fosfomycin disodium + 150 mg succinic acid), 25° C. and 60% RH, 0 months
resultType: wt % of impurities at time points (months): 0 (wt %)
The response must be a number in wt % with no trailing unit.

Ask: Request the reported wt % of impurities at time points (months): 0 associated with CC(OP(=O)(O)C1OC1C)C(O)P(=O)(O)O (stereo not drawn) [Dimer2]
Reply: 0.05

----------
experiment: Stability study of fosfomycin for injection drug product: analysis of impurities by HILIC-HPLC with CAD detection; assay type: physicochemical; conditions: fosfomycin for injection drug product (vials, 7.92 g fosfomycin disodium + 150 mg succinic acid), 25° C. and 60% RH, 6 months
So basically, if wt % of impurities at time points (months): 6 comes in under 0.1 wt % it's criterion met, and if it's 0.1 wt % or more it's criterion not met.

Ask: Please check: wt % of impurities at time points (months): 6 for `C=CCP(=O)(O)O` , strictly under 0.1 wt % or not?
Reply: criterion not met

Ask: Decide: wt % of impurities at time points (months): 6 of COC(C(C)O)P(=O)(O)O (stereo not drawn) strictly below 0.1 wt %?
Reply: criterion not met

Ask: Please check: wt % of impurities at time points (months): 6 for CC(O)C(O)P(=O)([O-])[O-].[Na+].[Na+] (stereo not drawn) [Impurity A, (1,2-dihydroxypropyl)phosphonate] , strictly under 0.1 wt % or not?
Reply: criterion met

Ask: Dear colleague, could you confirm whether wt % of impurities at time points (months): 6 of CC(OP(=O)(O)C1OC1C)C(O)P(=O)(O)O (stereo not drawn) [Dimer1] falls below 0.1 wt %? Thanks.
Reply: criterion met

----------
assay: Stability study of fosfomycin for injection drug product: analysis of impurities by HILIC-HPLC with CAD detection; assay type: physicochemical; conditions: fosfomycin for injection drug product (vials, 7.92 g fosfomycin disodium + 150 mg succinic acid), 25° C. and 60% RH, 3 months
Quick reference: wt % of impurities at time points (months): 3 of the listed items.
Please state the figure in wt %; there is no need to write the unit.

Answered examples (3):
CC(O)C(O)P(=O)([O-])[O-].[Na+].[Na+] (stereo not drawn) [Impurity A, (1,2-dihydroxypropyl)phosphonate] : 0.07
CC(OP(=O)(O)C1OC1C)C(O)P(=O)(O)O (stereo not drawn) [Dimer2] : 0.07
COC(C(C)O)P(=O)(O)O (stereo not drawn) : 0.13

Ask: Entry CC(OP(=O)(O)C1OC1C)C(O)P(=O)(O)O (stereo not drawn) [Dimer1] : reported wt % of impurities at time points (months): 3 = ?
Reply: 0.05

Ask: Requested read-out: wt % of impurities at time points (months): 3. Entry: `C=CCP(=O)(O)O`
Reply: 0.39

----------
// reported wt % of impurities at time points (months): 12 per item
assay: Stability study of fosfomycin for injection drug product: analysis of impurities by HILIC-HPLC with CAD detection; type: physicochemical; details: fosfomycin for injection drug product (vials, 7.92 g fosfomycin disodium + 150 mg succinic acid), 25° C. and 60% RH, 12 months
Note: unit wt % is implicit; provide only the numeric part.

These solved cases illustrate the format of a correct answer.
CC(O)C(O)P(=O)([O-])[O-].[Na+].[Na+] (centres unmarked) [Impurity A, (1,2-dihydroxypropyl)phosphonate] : 0.10
CC(OP(=O)(O)C1OC1C)C(O)P(=O)(O)O (centres unmarked) [Dimer2] : 0.11

Turning to the following compound.
Ask: For C=CCP(=O)(O)O [Olefinic acid, 2-propenyl phosphonic acid] , what is its reported wt % of impurities at time points (months): 12?
Reply: 0.40

----------
assay: Stability study of fosfomycin for injection drug product: analysis of impurities by HILIC-HPLC with CAD detection; assay type: physicochemical; settings: fosfomycin for injection drug product (vials, 7.92 g fosfomycin disodium + 150 mg succinic acid), 25° C. and 60% RH, 9 months
Overview of recorded wt % of impurities at time points (months): 9 for various molecules
Dear colleague, please return just the value in wt %, with no unit written.

CC(O)C(O)P(=O)([O-])[O-].[Na+].[Na+] (stereo not shown) [Impurity A, (1,2-dihydroxypropyl)phosphonate] : 0.11
CC(OP(=O)(O)C1OC1C)C(O)P(=O)(O)O (stereo not shown) [Dimer2] : 0.08
CC(OP(=O)(O)C1OC1C)C(O)P(=O)(O)O (stereo not shown) [Dimer1] : 0.06

Now for a further molecule.
Ask: Query: wt % of impurities at time points (months): 9; subject: C=CCP(=O)(O)O [Olefinic acid, 2-propenyl phosphonic acid]
Reply: 0.36

----------
Entries and their measured wt % of impurities at time points (months): 0 follow.
Assay: Stability study of fosfomycin for injection drug product: analysis of impurities by HILIC-HPLC with CAD detection
Assay type: physicochemical
Conditions: fosfomycin for injection drug product (vials, 7.92 g fosfomycin disodium + 150 mg succinic acid), 25° C. and 60% RH, 0 months
Description: As part of a stability study of fosfomycin for injection drug product, analysis of impurities was performed according to the method of the present invention, using HILIC-HPLC method with CAD detection, as disclosed, for example, in example 2. […] The samples were kept at 25° C. and 60% RH. […] “Dtd.” in the table stands for “detected”, meaning that the impurity is detected but is under the limit of detection (0.05 wt %). ND stands for “not detected”.
Give just the numeric value; wt % need not be written.

CC(OP(=O)(O)C1OC1C)C(O)P(=O)(O)O (centres unmarked) [Dimer1] : 0.05
C=CCP(=O)(O)O : 0.40

Ask: Look up wt % of impurities at time points (months): 0 for this compound: COC(C(C)O)P(=O)(O)O (centres unmarked)
Reply: 0.07
